assay: Half life in ICR mouse at 40 mg/kg, ip; format: ADME, organism-based; details: in vivo
Property label: half-life
Your answer should be a number followed by the unit of measure.

INPUT: Provide measured half-life value, entry: `CCCCc1cc(=O)oc2cc(C)cc(O[C@H](C)C(=O)N3Cc4[nH]c5ccccc5c4C[C@H]3C(=O)OC)c12`
OUTPUT: 2.14 h

###

assay: Cytotoxicity against human HL-60 cells assessed as reduction in cell viability after 48 hrs by Cell Count Reagent SF based assay; assay type: toxicity
Property label: IC50 at 48 h

INPUT: Return reported IC50 at 48 h. Input compound: `CCCCc1cc(=O)oc2cc(C)cc(OCC(=O)N3Cc4[nH]c5ccccc5c4C[C@H]3C(=O)OC)c12`
OUTPUT: > 3000 nM

INPUT: Give IC50 at 48 h for the following compound: `CCCCc1cc(=O)oc2cc(C)cc(O[C@H](C)C(=O)N3CCc4c([nH]c5ccccc45)C3)c12`
OUTPUT: > 3000 nM

INPUT: Note IC50 at 48 h for the compound shown: CCCCc1cc(=O)oc2cc(C)cc(OC(CC)C(=O)N3Cc4[nH]c5ccccc5c4C[C@H]3C(=O)OC)c12 (stereo partly drawn)
OUTPUT: > 3000 nM

INPUT: Give me measured IC50 at 48 h, please, for this compound: CCCCc1cc(=O)oc2cc(C)cc(OC(CCCC)C(=O)N3Cc4[nH]c5ccccc5c4C[C@H]3C(=O)OC)c12 (stereo partly drawn)
OUTPUT: > 3000 nM

INPUT: Provide measured IC50 at 48 h value, entry: `CCCCC(=O)c1c(OC)cc(C)cc1O[C@H](C)C(=O)N1Cc2[nH]c3ccccc3c2C[C@H]1C(=O)OC`
OUTPUT: > 3000 nM

INPUT: Report IC50 at 48 h for `CCCCc1cc(=O)oc2cc(C)cc(O[C@H](C)C(=O)N[C@@H](Cc3c[nH]c4ccccc34)C(=O)OC)c12`
OUTPUT: > 3000 nM

INPUT: Tell me measured IC50 at 48 h for `CCCCc1cc(=O)oc2cccc(O[C@H](C)C(=O)N3Cc4[nH]c5ccccc5c4C[C@H]3C(=O)OC)c12` please.
OUTPUT: > 3000 nM

INPUT: Input `CCCCc1cc(=O)oc2cc(Br)cc(O[C@H](C)C(=O)N3Cc4[nH]c5ccccc5c4C[C@H]3C(=O)OC)c12` , output reported IC50 at 48 h.
OUTPUT: > 3000 nM

###

test: Cmax in ICR mouse at 40 mg/kg, ip; format: ADME, organism-based; set-up: dose 40 mg/kg, route ip; conditions: in vivo
Property label: Cmax (ng/mL)
Unit ng/mL implied. Number only.

INPUT: Note Cmax for the compound shown: `CCCCc1cc(=O)oc2cc(C)cc(O[C@H](C)C(=O)N3Cc4[nH]c5ccccc5c4C[C@H]3C(=O)OC)c12`
OUTPUT: 7120

###

test: AUC in ICR mouse at 40 mg/kg, ip; type: ADME, organism-based; design: dose 40 mg/kg, route ip; conditions: in vivo
Property label: AUC (ng·h/mL)
Unit ng·h/mL implied. Number only.

INPUT: Write down AUC measured for item `CCCCc1cc(=O)oc2cc(C)cc(O[C@H](C)C(=O)N3Cc4[nH]c5ccccc5c4C[C@H]3C(=O)OC)c12`
OUTPUT: 25600
